tested on: sorghum; experiment: Herbicidal activity test against upland field weeds (soil treatment test); format: in vivo; conditions: Sorghum, 50 g ai/ha, scale 0 (no control) to 100 (complete control)
Here, each record is paired with measured plant injury at 50 g/ha data.
The response must be a number in % with no trailing unit.

Examples with answers:
Task: Form field: plant injury at 50 g/ha recorded for Cn1nnc(CSCc2nc(C(F)(F)F)ccc2C(=S)Nc2nnnn2C)n1 with sorghum (enter value)
Result: 20

Task: Short answer please: plant injury at 50 g/ha, sorghum, entry Cn1nnc(COCc2nc(C(F)(F)F)ccc2C(=O)N(C(=O)c2ccccc2)c2nnnn2C)n1
Result: 40

Task: Lab note: need plant injury at 50 g/ha for Cn1nnnc1NC(=O)c1ccc(C(F)(F)F)nc1OCc1nnnn1C(F)F on sorghum, anyone have it?
Result: 30

Now consider a different compound.
Task: Give recorded plant injury at 50 g/ha with sorghum for the following compound: CC(=O)N(C(=O)c1ccc(C(F)(F)F)nc1COCc1nnn(C)n1)c1nnnn1C
Result: 50

----------
system: soybean; assay: Phytotoxicity test for field crops (soil treatment test); assay type: in vivo; set-up: key: 0 (no harm); 9 (complete withered); details: 100 g ai/ha; Soybean (20 days after treatment)
# Soil treatment phytotoxicity, Soybean listing for each entry below
I only need the number, thanks.

Consider the following illustrative entries.
Task: Given the entry Cn1ncnc1COCc1nc(C(F)(F)F)ccc1C(=O)Nc1nnnn1C , report its measured Soil treatment phytotoxicity, Soybean.
Result: 0

Task: May I ask what Soil treatment phytotoxicity, Soybean has been recorded for Cn1nc(COCc2nc(C(F)(F)F)ccc2C(=O)Nc2nnnn2C)nc1Cl ?
Result: 3

Task: Please give the measured Soil treatment phytotoxicity, Soybean for this molecule: Cn1nnc(COCc2nc(C(F)(F)F)ccc2C(=O)N(C(=O)c2ccccc2)c2nnnn2C)n1
Result: 0

Continuing:
Task: Would you kindly share the measured Soil treatment phytotoxicity, Soybean for Cn1nnc(COCc2nc(C(F)(F)F)ccc2C(=O)Nc2nnnn2C)n1 ?
Result: 6

Task: I would be grateful if you could share the reported Soil treatment phytotoxicity, Soybean for Cn1nnc(CSCc2nc(C(F)(F)F)ccc2C(=O)N(C(=O)c2ccccc2)c2nnnn2C)n1 .
Result: 0

Task: What Soil treatment phytotoxicity, Soybean value was documented for this molecule, Cn1nnnc1NC(=O)c1ccc(C(F)(F)F)nc1OCc1nnnn1C(F)F ?
Result: 4

Task: Any idea what its Soil treatment phytotoxicity, Soybean is? The molecule is Cn1cnc(COCc2nc(C(F)F)ccc2C(=O)Nc2nnnn2C)n1
Result: 0

----------
system: cotton; assay: Phytotoxicity test for field crops (soil treatment test); format: in vivo; details: 100 g ai/ha; Cotton (20 days after treatment)
A collection of molecules and their measured Soil treatment phytotoxicity, Cotton
Respond numerically, and do not add a unit to the figure.

Task: Fill in the blank: the reported Soil treatment phytotoxicity, Cotton of Cn1nnc(COCc2nc(C(F)(F)C(F)(F)F)ccc2C(=O)Nc2nnnn2C)n1 is ____.
Result: 6

Task: Which Soil treatment phytotoxicity, Cotton value belongs to Cn1nnc(COc2nc(C(F)(F)F)ccc2C(=O)Nc2nnnn2C)n1 ?
Result: 7

Task: Reported Soil treatment phytotoxicity, Cotton, molecule Cn1nnc(CSCc2nc(C(F)(F)F)ccc2C(=O)N(C(=O)c2ccccc2)c2nnnn2C)n1 : ____
Result: 1

Task: What value of measured Soil treatment phytotoxicity, Cotton is listed for Cn1nnc(COCc2nc(C(F)(F)F)ccc2C(=S)Nc2nnnn2C)n1 ?
Result: 8

Task: // Soil treatment phytotoxicity, Cotton lookup, key: CN(Cc1nnn(C)n1)c1nc(C(F)(F)F)ccc1C(=O)Nc1nnnn1C
Result: 4

Others:
Task: Fill in: Soil treatment phytotoxicity, Cotton of Cn1nnnc1NC(=O)c1ccc(C(F)(F)F)nc1OCc1nnnn1C(F)F is ___
Result: 1
